Below, each entry is listed with its recorded inhibition.
Target: UniProtKB Q8N6T7
Sequence (Q8N6T7 whole entry, the tested form may be a part): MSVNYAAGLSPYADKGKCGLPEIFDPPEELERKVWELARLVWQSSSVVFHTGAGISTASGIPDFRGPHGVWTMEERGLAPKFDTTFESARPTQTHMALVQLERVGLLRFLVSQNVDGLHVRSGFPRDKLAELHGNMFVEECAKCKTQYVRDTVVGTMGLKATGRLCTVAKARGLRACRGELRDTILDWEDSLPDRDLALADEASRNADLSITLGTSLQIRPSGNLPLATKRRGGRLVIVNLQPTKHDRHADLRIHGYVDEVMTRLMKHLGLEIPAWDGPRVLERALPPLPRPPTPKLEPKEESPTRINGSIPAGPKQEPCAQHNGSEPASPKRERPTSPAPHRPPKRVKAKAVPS
Experiment: Inhibition of human SIRT6 (1 to 294 residues) expressed in Escherichia coli Rosetta (DE3) at 250 uM using H3K9AcWW as substrate preincubated for 15 mins followed by substrate addition measured after 1 hr by HPLC analysis relative to control
Residues, ends and D or L forms follow the SMILES beside them. *: point of attachment. X2 = CCCCCCCCCCCCCNC(=O)CCC*; X1 = CCCCCCCCCCNC(=O)CCC*

CCCCCCCCCCCCCNC(=O)CCCSC[C@H](NC(=O)[C@H](CCCNC(=N)N)NC(=O)[C@H](C)NC(=O)[C@@H](NC(=O)[C@H](CCC(N)=O)NC(=O)[C@@H](N)CCCCN)[C@@H](C)O)C(=O)N[C@@H](CO)C(=O)N[C@H](C(=O)NCC(=O)NCC(=O)N[C@@H](CCCCN)C(=O)O)[C@@H](C)O (H-KQTARC(X2)STGGK-OH)	54%

Asked: Which measured inhibition value corresponds to CCCCCCCCCCNC(=O)CCCSC[C@H](NC(=O)[C@H](CCCNC(=N)N)NC(=O)[C@H](C)NC(=O)[C@@H](NC(=O)[C@H](CCC(N)=O)NC(=O)[C@@H](N)CCCCN)[C@@H](C)O)C(=O)N[C@@H](CO)C(=O)N[C@H](C(=O)NCC(=O)NCC(=O)N[C@@H](CCCCN)C(=O)O)[C@@H](C)O (H-KQTARC(X1)STGGK-OH) ?
Given back: 41%
